Hello, the source for this data is PubChem BioAssay (NCI), in case you need it.

# System: NCI-H23 lung
# assay-overview: NCI tumour cell line growth inhibition, 48 h
TGI for assorted molecules

molecule | endpoint | readout-value
N#C/C(=C/C=C(\Cl)c1ccc(Cl)cc1)C(N)=O | TGI | 8.83 µM

The molecule O=c1ccc2ccccc2o1 showed TGI equal to > 100 µM

The molecule C=C1CC/C=C(/C(=O)O)CC[C@H]2[C@@H]1CC2(C)C showed TGI equal to > 100 µM

====

TGI for assorted compounds
# Tested on: CCRF-CEM leukemia
# assay-overview: NCI tumour cell line growth inhibition, 48 h

Example cases with answers are listed next.
compound | endpoint | readout-value
Cc1cc(Cc2cc(C)c(NC(=O)C(=O)C3C(=O)NC(=S)NC3=O)c(C(C)C)c2)cc(C(C)C)c1NC(=O)C(=O)C1C(=O)NC(=S)NC1=O | TGI | > 100 µM
CCSc1nc2sc(C)c(C)c2c(=O)n1-c1ccc(C(=O)O)cc1 | TGI | > 100 µM
FC(F)(F)c1ccc2c(c1)nc(Cc1ccccc1)n2C[C@@H]1CCCN2CCCCC12 (stereo not given in full) | TGI | > 54.8 µM
OCCCSc1ccccc1SCCCO | TGI | > 100 µM

Here's the next entry for you.
The compound Cc1cc2c(c3oc(C(O)(CO)C4CO4)cc(=O)c13)C(=O)c1c(O)cccc1C2=O (stereo not given) showed TGI equal to 0.000111 µM

====

# System: DU-145 prostate
# assay-overview: NCI tumour cell line growth inhibition, 48 h
TGI for assorted compounds

Example cases with answers are listed next.
compound | TGI
COc1cc(/C=C2\N=C(c3ccccc3)N(C3Nc4cc5c(cc4S3)NC(N3C(=O)/C(=C/c4cc(OC)c(OC)c(OC)c4)N=C3c3ccccc3)S5)C2=O)cc(OC)c1OC (configuration not stated) | > 100 µM
CCCn1cnc2c(NN=O)ncnc21 | > 100 µM
Nc1ccn([C@H]2C[C@@H](O)[C@@H](CO)S2)c(=O)n1 | > 100 µM

The compound CN(C)CCNC(=O)c1cccc2cc3ccccc3nc12 showed TGI equal to 4.37 µM

The compound O=C(CCCCCCCCC(=O)NN1C(=O)/C(=C\c2ccc(O)c(O)c2)SC1c1c(O)ccc2ccccc12)NN1C(=O)C(=Cc2ccc(O)c(O)c2)SC1c1c(O)ccc2ccccc12 (configuration not stated) showed TGI equal to > 59.8 µM

The compound O=C1CC(Br)c2c(Cl)sc(Cl)c21 (configuration not stated) showed TGI equal to 31.3 µM

The compound COc1c2ccccc2c(O)c2c(=O)c(C(=O)O)cn(C)c12 showed TGI equal to > 100 µM

====

# Tested on: OVCAR-5 ovarian
# assay-overview: NCI tumour cell line growth inhibition, 48 h
endpoint: TGI

Example cases with answers are listed next.
compound | test-system | readout-value
COC(=O)c1c2c(c(C)[n+]([O-])c1C)C(=O)C=C(NCc1cccc(OC)c1)C2=O | OVCAR-5 ovarian | 2.77 µM
C=C(CNCCc1ccc(O)cc1)[C@@H]1CC[C@]2(CO)CC[C@]3(C)[C@H](CC[C@@H]4[C@@]5(C)CCC(=O)C(C)(C)[C@@H]5CC[C@]43C)[C@@H]12 | OVCAR-5 ovarian | 3 µM
N#Cc1c[nH]n2ccnc12 | OVCAR-5 ovarian | > 100 µM
CC(C)(C)OC(=O)C1=C(C(=O)OC(C)(C)C)SC2(S1)C(C(=O)OC(C)(C)C)=C(C(=O)OC(C)(C)C)Sc1c2ssc1=O | OVCAR-5 ovarian | > 100 µM
Cc1ccc(S(=O)(=O)Oc2ccc3c4c(c(=O)oc3c2)CCCCC4)cc1 | OVCAR-5 ovarian | > 100 µM
Cc1ccc(S(=O)(=O)N2CCSCCSCCN(S(=O)(=O)c3ccc(C)cc3)CCN(S(=O)(=O)c3ccc(C)cc3)CC2)cc1 | OVCAR-5 ovarian | > 100 µM

Value (TGI, OVCAR-5 ovarian) for record COc1cc2cc(Oc3ccc(NC(=O)Nc4ccccc4)cc3)c(C)nc2cc1OCCN1CCCCC1 = 11.5 µM

Value (TGI, OVCAR-5 ovarian) for record OC1C(O)C(O)C(O)C(O)C1O (stereo not drawn) = > 1000 µM

====

GI50 for assorted compounds
# Tested on: NCI-H226 lung
# assay-overview: NCI tumour cell line growth inhibition, 48 h

Example cases with answers are listed next.
compound | GI50
CCC(C(=O)[O-])C(=O)[O-].CCC(C(=O)[O-])C(=O)[O-].N.N.NCCCCCN.[Pt+4].[Pt+4] | 23.4 µM
Nc1c(C(=O)c2cccc(OCCN3CCOCC3)c2)cnn1-c1ccc(F)cc1 | > 25 µM
N#C/C(=C/C=C(\Cl)c1ccc(Cl)cc1)C(N)=O | 4.96 µM
COc1cc2c3c(n(CCN)c(=O)c2cc1OC)-c1cc2c(cc1C3=O)OCO2 | 0.769 µM
COC(=O)[C@]12CC[C@@H](C)[C@H](C)[C@@H]1C1=CC[C@@H]3[C@@]4(C)C(C=O)=C[C@@](C)(COC(C)=O)[C@@H]4[C@H](O)C[C@@]3(C)[C@]1(C)CC2 | 1.95 µM

The compound CC[N+](CC)=c1ccc2nc3c(cc(NCc4ccccc4)c4ccccc43)oc-2c1 showed GI50 equal to 0.358 µM

The compound CCC(=O)OC1CCn2c1nc1c2C(=O)C(C)=C(N2CC2)C1=O (centres undefined) showed GI50 equal to 0.186 µM

The compound O=C1c2ccccc2S(=O)(=O)N1CSC(=S)N1CCCC1 showed GI50 equal to > 100 µM

The compound Cc1ccc(N=C2CSc3nnc(-c4csc5c4CCCC5)n3N2)cc1 showed GI50 equal to > 50 µM

====

# Test system: HOP-18 NSCLC
# assay-overview: NCI tumour cell line growth inhibition, 48 h
endpoint: TGI

structure-string | test-system | TGI
C/C(=N\NC(=O)CC(=O)Nc1ccc(Cl)cc1)c1cc2ccccc2oc1=O | HOP-18 NSCLC | > 100 µM
CCCCCCCCCCCCCC/C(C(=O)OC)=C(/O)C(=O)OCC | HOP-18 NSCLC | 73.7 µM

Value (TGI, HOP-18 NSCLC) for record C#CCN1CCN(C(=S)N/N=C(\C)c2ccccn2)CC1 = 10.6 µM

====

# Test system: SF-268 CNS
# assay-overview: NCI tumour cell line growth inhibition, 48 h
endpoint: TGI

compound | test-system | TGI
CCOC(=O)CCC(NC(=O)c1ccc(CNc2nc3cc(N)cc(N)c3nc2-c2ccccc2)cc1)C(=O)OCC (centres undefined) | SF-268 CNS | > 100 µM
COc1cc(/C=C/C(=O)c2cc(F)c(Cl)cc2Cl)cc(OC)c1OC | SF-268 CNS | > 100 µM
Cc1cc(=O)oc2cc(OC(=O)Nc3ccc(Cl)c(Cl)c3)ccc12 | SF-268 CNS | > 100 µM
C[C@@]12CC[C@H]3[C@@H]4CCC(=O)N[C@@]4(C)CC[C@@H]3[C@@]1(C)CC[C@H](OC(=O)Cc1ccc(N(CCCl)CCCl)cc1)C2 | SF-268 CNS | 31.9 µM

The compound Cc1ccc(-c2ccc(Nc3c4ccccc4nc4ccccc34)cc2)cn1 showed TGI equal to > 100 µM

The compound COc1cc(NN=C(c2ccc(O)cc2)c2ccc(O)cc2)c([N+](=O)[O-])cc1[N+](=O)[O-] showed TGI equal to 25.5 µM

The compound CCOC(=O)CCC(C(=O)OCC)n1nc2ccc(Nc3c(C)[n+]([O-])c4cc(Cl)ccc4[n+]3[O-])cc2n1 (centres undefined) showed TGI equal to > 100 µM

The compound COC(=O)c1ccc2n1C1CC3CC(CC2C3)C1 showed TGI equal to > 100 µM

The compound COc1cc2c3c(n(CCCN4CCN(C)CC4)c(=O)c2cc1OC)-c1cc2c(cc1C3=O)OCO2 showed TGI equal to 41.8 µM

====

TGI for assorted molecules
# Tested on: HS 578T breast
# assay-overview: NCI tumour cell line growth inhibition, 48 h

Example cases with answers are listed next.
molecule | TGI
NC(=O)c1[nH]nc(C2OC(CO)C(O)C2O)c1O (centres undefined) | 1620 µM
O=C(Nc1cnn2ccc(N3CCC[C@@H]3c3cc(F)ccc3F)nc12)N1CC[C@H](O)C1 | > 100 µM
Cc1ccc(/C=C2\NC(=S)N(CN3CCOCC3)C2=O)cc1 | > 100 µM
C/C=C(\C)C(=O)O[C@@H]1C(O)[C@H]2OC(COC(=O)CCC(=O)CCCCCC[C@H](CCCCC)O[C@@H]3OC(C)[C@H](OC(C)=O)C(O)[C@H]3O2)[C@H]1OC(=O)/C=C/c1ccccc1 (some centres undefined) | 23.3 µM
Cc1cc(O)c2c(c1)C(=O)c1cc(O)cc(O)c1C2=O | 82.4 µM

The molecule COC1=CC(=O)C(O)=C(C[C@@]2(C)[C@@H]3CCC[C@H](COC(=O)CCCCCNC(=O)OC(C)(C)C)[C@@]3(C)CC[C@@H]2C)C1=O showed TGI equal to > 10 µM

The molecule COc1ccc(/C=C2\CN(C)CC3=C2OC(N)=C(C#N)C3c2ccc(OC)cc2)cc1 (centres undefined) showed TGI equal to > 100 µM

The molecule Nc1ccn([C@H]2C[C@@H](O)[C@@H](CO)S2)c(=O)n1 showed TGI equal to > 100 µM

The molecule Cn1c(N2CCCC2)c(C=O)c(=O)n(C)c1=O showed TGI equal to > 100 µM
